target: Neuronal acetylcholine receptor; alpha3/beta4 (Homo sapiens, UniProt P30926+P32297); assay: Inhibition of [3H]epibatidine binding to nicotinic acetylcholine receptor alpha3-beta4 of IMR32 cells
Sequence (P30926 whole entry): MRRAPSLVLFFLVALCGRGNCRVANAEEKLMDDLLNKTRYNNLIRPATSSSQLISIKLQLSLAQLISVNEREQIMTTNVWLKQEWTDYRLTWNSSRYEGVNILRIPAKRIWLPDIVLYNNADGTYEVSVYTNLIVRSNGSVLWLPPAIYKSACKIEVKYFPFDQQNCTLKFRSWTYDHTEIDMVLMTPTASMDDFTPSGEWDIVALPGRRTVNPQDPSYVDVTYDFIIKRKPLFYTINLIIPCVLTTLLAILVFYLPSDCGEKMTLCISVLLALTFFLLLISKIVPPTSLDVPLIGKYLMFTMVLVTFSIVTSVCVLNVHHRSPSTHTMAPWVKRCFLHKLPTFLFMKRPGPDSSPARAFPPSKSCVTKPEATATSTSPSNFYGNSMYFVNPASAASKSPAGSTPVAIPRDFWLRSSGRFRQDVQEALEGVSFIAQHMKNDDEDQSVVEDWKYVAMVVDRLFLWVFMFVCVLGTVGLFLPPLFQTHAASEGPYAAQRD
Sequence (P32297 whole entry): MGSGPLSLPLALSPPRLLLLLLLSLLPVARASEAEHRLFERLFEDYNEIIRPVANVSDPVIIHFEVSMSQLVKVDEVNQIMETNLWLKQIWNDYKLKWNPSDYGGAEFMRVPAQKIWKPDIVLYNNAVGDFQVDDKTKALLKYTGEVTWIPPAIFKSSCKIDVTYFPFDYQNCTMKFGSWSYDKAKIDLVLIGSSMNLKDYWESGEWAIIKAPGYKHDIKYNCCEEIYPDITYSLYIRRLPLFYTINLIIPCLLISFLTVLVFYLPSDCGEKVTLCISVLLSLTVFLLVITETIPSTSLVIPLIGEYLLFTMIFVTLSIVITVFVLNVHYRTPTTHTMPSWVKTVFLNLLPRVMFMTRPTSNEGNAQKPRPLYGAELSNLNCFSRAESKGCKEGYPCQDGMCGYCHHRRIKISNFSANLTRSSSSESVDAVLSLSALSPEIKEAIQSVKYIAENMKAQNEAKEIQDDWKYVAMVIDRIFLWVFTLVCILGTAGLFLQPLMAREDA

{"compound": "Fc1ccc2c(c1F)CC1CNCC2C1 (stereo unspecified)", "Ki (nM)": 810}
{"compound": "O=[N+]([O-])c1ccc2c(c1)CC1CNCC2C1 (stereo unspecified)", "Ki (nM)": 340}
{"compound": "O=[N+]([O-])c1ccc2c(c1)C1CNCC(C2)C1 (stereo unspecified)", "Ki (nM)": 980}
{"compound": "COc1ccc2c(c1)CC1CNCC2C1 (stereo unspecified)", "Ki (nM)": 810}
{"compound": "Fc1ccc2c(c1)CC1CNCC2C1 (stereo unspecified)", "Ki (nM)": 710}
{"compound": "c1cc2c(c3c1CC1CNCC3C1)OCO2 (stereo unspecified)", "Ki (nM)": 1900}

Attribution: ChEMBL document CHEMBL1139609
